MEASURED TARGET: full-length human PIKFYVE (Homo sapiens, UniProt Q9Y2I7, L932S/Q1183K/Q995L/S1033A/S696N/T998S)
Construct: A full-length human PIKFYVE [1-2098(end) amino acids and S696N, L932S, Q995L, T998S, S1033A and Q1183K
Sequence (Q9Y2I7 whole entry S696N/L932S/Q995L/T998S/S1033A/Q1183K): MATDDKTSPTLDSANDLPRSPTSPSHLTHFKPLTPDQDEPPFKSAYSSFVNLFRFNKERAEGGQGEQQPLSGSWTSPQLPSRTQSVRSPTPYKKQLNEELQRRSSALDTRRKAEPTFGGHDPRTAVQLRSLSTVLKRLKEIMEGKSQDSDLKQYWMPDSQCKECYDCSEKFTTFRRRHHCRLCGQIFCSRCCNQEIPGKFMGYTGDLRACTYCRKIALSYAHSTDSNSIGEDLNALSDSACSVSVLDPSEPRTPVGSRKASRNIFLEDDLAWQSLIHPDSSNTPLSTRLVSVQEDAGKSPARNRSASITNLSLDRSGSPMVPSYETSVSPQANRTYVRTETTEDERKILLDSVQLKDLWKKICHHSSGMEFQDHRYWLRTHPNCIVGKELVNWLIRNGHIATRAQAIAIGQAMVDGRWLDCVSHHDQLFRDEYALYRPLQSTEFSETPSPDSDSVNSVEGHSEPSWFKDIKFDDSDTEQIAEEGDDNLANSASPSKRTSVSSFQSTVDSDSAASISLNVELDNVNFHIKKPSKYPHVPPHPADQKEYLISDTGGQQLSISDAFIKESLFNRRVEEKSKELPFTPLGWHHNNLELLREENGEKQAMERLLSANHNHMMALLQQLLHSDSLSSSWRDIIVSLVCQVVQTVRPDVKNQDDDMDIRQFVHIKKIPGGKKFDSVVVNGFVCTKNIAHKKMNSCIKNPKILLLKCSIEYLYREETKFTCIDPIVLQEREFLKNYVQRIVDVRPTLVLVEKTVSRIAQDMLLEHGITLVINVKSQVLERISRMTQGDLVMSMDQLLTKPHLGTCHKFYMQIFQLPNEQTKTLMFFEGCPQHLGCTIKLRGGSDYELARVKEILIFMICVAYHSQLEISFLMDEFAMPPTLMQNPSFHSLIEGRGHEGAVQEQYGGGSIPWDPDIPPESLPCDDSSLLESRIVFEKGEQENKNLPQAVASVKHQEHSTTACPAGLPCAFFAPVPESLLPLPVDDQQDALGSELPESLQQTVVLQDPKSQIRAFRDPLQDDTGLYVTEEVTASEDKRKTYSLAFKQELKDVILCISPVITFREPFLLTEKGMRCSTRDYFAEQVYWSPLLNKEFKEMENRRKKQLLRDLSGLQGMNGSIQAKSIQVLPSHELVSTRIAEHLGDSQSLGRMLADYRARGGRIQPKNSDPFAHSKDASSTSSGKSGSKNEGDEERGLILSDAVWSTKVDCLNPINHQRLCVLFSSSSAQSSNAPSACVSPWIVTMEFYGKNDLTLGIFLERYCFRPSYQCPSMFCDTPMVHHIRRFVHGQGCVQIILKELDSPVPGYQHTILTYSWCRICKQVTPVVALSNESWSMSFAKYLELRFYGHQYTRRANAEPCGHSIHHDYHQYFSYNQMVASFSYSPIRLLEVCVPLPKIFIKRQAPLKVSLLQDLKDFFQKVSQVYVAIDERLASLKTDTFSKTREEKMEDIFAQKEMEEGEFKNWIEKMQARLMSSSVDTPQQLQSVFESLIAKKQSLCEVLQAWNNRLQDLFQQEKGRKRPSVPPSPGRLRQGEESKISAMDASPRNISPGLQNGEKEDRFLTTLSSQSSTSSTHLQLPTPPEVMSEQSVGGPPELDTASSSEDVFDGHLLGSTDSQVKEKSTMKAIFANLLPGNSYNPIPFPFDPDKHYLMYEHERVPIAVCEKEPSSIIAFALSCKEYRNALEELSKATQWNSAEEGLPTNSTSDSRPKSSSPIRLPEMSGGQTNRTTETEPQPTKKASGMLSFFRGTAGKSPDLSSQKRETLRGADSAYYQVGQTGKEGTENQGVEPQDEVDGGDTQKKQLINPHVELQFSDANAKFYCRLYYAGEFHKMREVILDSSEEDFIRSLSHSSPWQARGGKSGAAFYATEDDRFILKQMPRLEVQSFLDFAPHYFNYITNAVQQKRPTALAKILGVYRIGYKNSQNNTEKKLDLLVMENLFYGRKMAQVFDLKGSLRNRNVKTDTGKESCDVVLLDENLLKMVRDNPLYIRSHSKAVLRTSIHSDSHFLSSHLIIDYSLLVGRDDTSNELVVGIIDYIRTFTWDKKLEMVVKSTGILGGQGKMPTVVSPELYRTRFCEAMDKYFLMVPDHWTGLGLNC
RUN DESCRIPTION: PIKfyve biochemical assay (ADP-Glo Kinase assay, Carna Biosciences)
CONDITION CONTEXT: GST-PIKFYVE, 10 μM to 3 nM in duplicate, read-out: hPIKfyve IC50
Counter-ions that a name gives are not always drawn.
Reported values of IC50 for individual entries
OUTCOME MEASURE: IC50

>>> observed_value("COc1cnc2c(N3CCOCC3)nc(-n3ccc(-c4cccc(C)c4)n3)nc2c1")
"< 10 nM"
>>> observed_value("Oc1cccc(-c2cnn(-c3nc(N4CCOCC4)c4ncccc4n3)c2)c1")
"< 10 nM"
>>> observed_value("COc1ccc(-c2ccccc2)nc1-c1nc(N2CCOCC2)c2ncccc2n1")
"1000 to 10000 nM"
>>> observed_value("O=C1N(c2nc(N3CCOCC3)c3ncccc3n2)CCN1C1CCCC1")
"> 10000 nM"
>>> observed_value("c1ccc(-c2ccn(-c3nc(N4CCOCC4)c4ncc(N5CCOCC5)cc4n3)n2)cc1")
"10 to 100 nM"
>>> observed_value("Oc1cnc(-c2ccccc2)nc1-c1nc(N2CCOCC2)c2ncccc2n1")
"10 to 100 nM"
>>> observed_value("c1ccc(-c2ccn(-c3nc(N4CCOCC4)c4ncc(N5CCNCC5)cc4n3)n2)cc1")
"10 to 100 nM"
>>> observed_value("c1ccc(-c2cnn(-c3nc(N4CCOCC4)c4ncc(C5CCOCC5)cc4n3)c2)cc1")
"< 10 nM"
>>> observed_value("c1cnc2c(N3CCOCC3)nc(-n3ccc(-c4ccncc4)n3)nc2c1")
"1000 to 10000 nM"
>>> observed_value("FC(F)(F)Cn1ccc(-c2nc(N3CCOCC3)c3ncccc3n2)n1")
"1000 to 10000 nM"
>>> observed_value("Cc1cccc(/C=N/Oc2nc(N3CCOCC3)c3ncccc3n2)c1")
"10 to 100 nM"
>>> observed_value("Oc1cccc(-c2nccc(-c3nc(N4CCOCC4)c4ncccc4n3)n2)c1")
"100 to 1000 nM"
>>> observed_value("c1ccc(-c2cnn(-c3nc(N4CCOCC4)c4ncccc4n3)n2)cc1 [Compound 75, hydrochloride]")
"10 to 100 nM"
>>> observed_value("COc1cnc(-c2ccccc2)nc1-c1nc(N2CCOCC2)c2ncccc2n1")
"100 to 1000 nM"
>>> observed_value("Cc1cccc(-c2cc(O)n(-c3nc(N4CCOCC4)c4ncc(-c5ccoc5)cc4n3)n2)c1")
"< 10 nM"
>>> observed_value("Clc1nc(N2CCOCC2)c2ncc(Cc3cccnc3)cc2n1")
"> 10000 nM"
>>> observed_value("c1ccc(-c2cn(-c3nc(N4CCOCC4)c4ncccc4n3)nn2)cc1")
"100 to 1000 nM"
>>> observed_value("c1ccc(-c2cncc(-c3nc(N4CCOCC4)c4ncccc4n3)n2)cc1")
"100 to 1000 nM"
